Tested on: BT-549 breast
Test: NCI tumour cell line growth inhibition, 48 h
ASSAY METRIC: TGI (µM)
The figure you give is taken to be in µM; do not add the unit.

# COMPOUND, ASSAY SYSTEM, TGI / µM
records = [
    ("O=C1CSC(=S)N1/N=C/c1ccc(Cl)c([N+](=O)[O-])c1", "BT-549 breast", 37.9),
    ("C=C(C)C12OC1[C@@]1(C)C(=CC2=O)CCC(O)[C@@H]1C (stereo partly specified)", "BT-549 breast", 50.8),
    ("O=C1SC(SCc2ccccc2)=NC12CC2c1ccccc1 (stereo unspecified)", "BT-549 breast", 52.8),
]

Item O=C1OCC2=C1C(c1cccc(Br)c1)c1cc3c(cc1N2CCO)OCCO3 (stereo unspecified) has what recorded TGI?
6.35

Item CC(C)(C)[Si](C)(C)OC1[C@@H](O[Si](C)(C)C(C)(C)C)[C@@H](CNC(=O)NC(=O)C(F)(F)F)O[C@H]1n1cnc2c(NC(=O)Nc3ccccc3)ncnc21 (stereo partly specified) has what recorded TGI?
13.4

Item COC(=O)c1cc2oc(/C=C3/SC(=S)N(NC(C)=O)C3=O)cc2n1C has what recorded TGI?
22.7

----------
Test system: SNB-75 CNS
Test: NCI tumour cell line growth inhibition, 48 h
ASSAY METRIC: TGI (µM)
The figure you give is taken to be in µM; do not add the unit.

The cases that follow already have their TGI on record.
# SMILES STRUCTURE, TGI (µM)
measured = [
    ("C/C(=N\\NC(N)=S)c1ccc2c(c1)Sc1ccccc1O2", 7.21),
    ("N=c1oc2ccccc2cc1C(=O)NC12CC3CC(CC(C3)C1)C2", 71.3),
]

Query compound follows.
Item O=C1/C(=C\c2ccc(Cl)cc2Cl)Sc2scc(-c3ccc(O)c(O)c3)[n+]21 has what recorded TGI?
53.4

----------
Here, each record is paired with measured TGI data.
Test system: SN12C renal
Experiment: NCI tumour cell line growth inhibition, 48 h

# MOLECULE, TGI
rows = [
    ("O=C(Nc1cccc(C(F)(F)F)c1)Nc1cccc(C(F)(F)F)c1", "5.24 µM"),
]

Item N#C/C(N)=C(\C#N)NC=NCCO has what recorded TGI?
> 100 µM

Item Cc1ccc(-[n+]2cc([O-])on2)cc1 has what recorded TGI?
> 100 µM

Item C[C@]12c3c4cc(NC(=O)C(=O)NCc5ccc(-c6ccccn6)nc5)cc3Oc3cc(NC(=O)C(=O)NCc5ccc(-c6ccccn6)nc5)cc(c31)OC1C=C(NC(=O)C(=O)NCc3ccc(-c5ccccn5)nc3)C=C(O4)C12 (stereo not given in full) has what recorded TGI?
> 100 µM

Item CCOC(=O)c1cc(-c2ccc(OC)cc2)c([N+](=O)[O-])n1C has what recorded TGI?
> 10 µM

Item CCOC(=O)n1cc(C2=C(c3ccc(OC)c(OC)c3)COC2=O)c2ccccc21 has what recorded TGI?
> 100 µM

Item CC(C)[C@@H]1NC(=O)[C@]2(C)CSC(=N2)c2ccnc(c2)CNC(=O)C[C@@H](/C=C/CCS)OC1=O has what recorded TGI?
> 100 µM

Item COc1cc2c(/C=C3/C(=O)Nc4cccc(Cl)c43)c(Cl)[nH]c2cc1C has what recorded TGI?
3.33 µM

Item COc1ccccc1CC(=O)C(O)(C(F)(F)F)C(F)(F)F has what recorded TGI?
> 100 µM

Item NC(=S)N/N=C\c1nccc2c(C(F)(F)F)cccc12 has what recorded TGI?
12.4 µM

Item C[C@]12[C@@H]3CC[C@H]1[C@@H](O)C(=O)N2CC3 has what recorded TGI?
> 100 µM

Item CCNC(=O)c1ccc(C)c(N=NN(C)C)c1 has what recorded TGI?
> 100 µM

Item Cc1cn(C2OC(CO[Si](C)(C)C(C)(C)C)C(N(C)O[Si](C)(C)C(C)(C)C)C2[Se]c2ccccc2)c(=O)[nH]c1=O (stereo not given) has what recorded TGI?
> 100 µM

Item COc1ccc(C2c3cc4c(cc3OC3(OC)COC(=O)C23)OCO4)c(OC)c1 (stereo not given) has what recorded TGI?
> 100 µM

Item Cc1ccc(Nc2nc(NNC(=O)Cc3ccccc3)nc(NNC(=O)c3ccncc3)n2)cc1 has what recorded TGI?
> 10 µM

Item Cc1ccc(S(=O)(=O)N2CC2CCCCC=O)cc1 (stereo not given) has what recorded TGI?
> 100 µM

Item [O-][Cl+3]([O-])([O-])[O-].[O]=[Ru]=[O].c1ccc(-c2ccccn2)nc1.c1ccc(-c2ccccn2)nc1 has what recorded TGI?
> 100 µM

Item Cc1cc2c(cc1C)[n+](=O)c(C(=O)c1ccccc1)c(C(F)F)n2[O-] has what recorded TGI?
> 100 µM

Item N#CCCC[Si]12OCCN(CCO1)CCO2 has what recorded TGI?
> 100 µM

Item O=c1c2cccnc2ncn1CCN1CCCCC1 has what recorded TGI?
> 100 µM

----------
Tested on: ACHN renal
Assay: NCI tumour cell line growth inhibition, 48 h
ASSAY METRIC: TGI

# MOLECULE, ASSAY METRIC, RESULT
rows = [
    ("C/C(CN1C(=O)c2ccccc2C1=O)=N\\NS(=O)(=O)c1ccc(Cl)cc1", "TGI", "> 100 µM"),
]

Item COc1cc(-c2nn(-c3cccc(NC(=O)c4ccccc4)c3)cc2-c2ccncc2)ccc1Cl has what recorded TGI?
> 100 µM

Item CCOC(=O)c1cn2c(n1)sc1cc(F)ccc12 has what recorded TGI?
> 100 µM

Item N#CC(C(=O)CCC(=O)Nc1ccc(Cl)c(Cl)c1)c1ccccc1 (stereo not given) has what recorded TGI?
> 100 µM

Item CC(=C(c1ccc(OCCN2CCCCC2)cc1)c1ccc(OCCN2CCCCC2)cc1)c1ccc(Cl)cc1 has what recorded TGI?
0.779 µM

----------
Tested on: TK-10 renal
Assay: NCI tumour cell line growth inhibition, 48 h
ASSAY METRIC: TGI

The cases that follow already have their TGI on record.
# MOLECULE, TGI
records = [
    ("Cc1ccc(NC2=C3CCCCC3OC2=O)cc1 (configuration not stated)", "> 100 µM"),
    ("Cc1[cH-]c(=O)n(-c2ccccc2)n1.[Au+].[Au].c1ccc([PH+](c2ccccc2)c2ccccc2)cc1.c1ccc([PH+](c2ccccc2)c2ccccc2)cc1", "31.9 µM"),
    ("COC(=O)c1ccc(Cc2cc(Cc3ccc(C(=O)OC)cc3)cc(Cc3ccc(C(=O)OC)cc3)c2)cc1", "> 25 µM"),
    ("N#Cc1cccc(-n2[nH]c(=O)ccc2=O)c1", "> 100 µM"),
    ("NC(N)=NS(=O)(=O)c1ccc(N=Nc2c(O)c(C(=O)O)cc3ccccc23)cc1", "> 100 µM"),
]

Item COc1cc2c(cc1OC)C(Cl)C(c1ccc(F)cc1)=C2Cl (configuration not stated) has what recorded TGI?
28.5 µM

Item COC(=O)CC(C)(NS(=O)c1ccc(C)cc1)c1ccccc1 (configuration not stated) has what recorded TGI?
> 100 µM

----------
Test system: A549 NSCLC
Test: NCI tumour cell line growth inhibition, 48 h; in the data active = GI50 below about 0.43 µM; inactive = the rest
Your reply should match one of these outcome classes. label 1 (active), label 0 (inactive)

# COMPOUND, ASSAY SYSTEM, LABEL VALUE
data = [
    ("c1ccc(Nc2ncc(-c3ccccc3)o2)cc1", "A549 NSCLC", "label 0"),
    ("O=C(NC1CCCCC1)NS(=O)(=O)c1ccc(N2N=C3c4ccccc4CC3C2c2ccc(Cl)cc2)cc1 (stereo not drawn)", "A549 NSCLC", "label 0"),
    ("CC(=C(c1ccc(OCCN2CCCCC2)cc1)c1ccc(OCCN2CCCCC2)cc1)c1ccc(Cl)cc1", "A549 NSCLC", "label 0"),
    ("NC(=S)N/N=C\\c1nccc2c(C(F)(F)F)cccc12", "A549 NSCLC", "label 1"),
]

Any idea what this test logged for COC(=O)[C@]12CC[C@@H](C)[C@H](C)[C@@H]1C1=CC[C@@H]3[C@@]4(C)C[C@@H](O)[C@H](O)[C@@](C)(CO)[C@@H]4[C@H](O)C[C@@]3(C)[C@]1(C)CC2 ?
label 0

Any idea what this test logged for C#Cc1cccc(Nc2nc3cc([N+](=O)[O-])ccc3nc2Nc2ccc(O)cc2)c1 ?
label 0

Any idea what this test logged for O=C1c2c(F)c(F)c(F)c(F)c2C(=O)N1c1ccc(F)cc1F ?
label 0

Any idea what this test logged for [O-][Cl+3]([O-])([O-])[O-].[O]=[Ru]=[O].c1ccc(-c2ccccn2)nc1.c1ccc(-c2ccccn2)nc1 ?
label 0

----------
System: SNB-75 CNS
Assay: NCI tumour cell line growth inhibition, 48 h; in the data active means GI50 below about 0.43 µM; inactive means the rest
Your reply should match one of these outcome classes. active, inactive

Worked examples, 8 compounds total:
# SMILES STRUCTURE, ASSAY SYSTEM, LABEL VALUE
records = [
    ("CC1(C)[C@@H](NOCCCN)CC[C@]2(C)[C@H]3C(=O)C=C4[C@@H]5C[C@](C)(C(=O)O)CC[C@]5(C)CC[C@@]4(C)[C@]3(C)CC[C@@H]12", "SNB-75 CNS", "inactive"),
    ("O=[N+]([O-])c1cc([N+](=O)[O-])c(C(F)(F)F)cc1NN=C(c1ccc(O)cc1)c1ccc(O)cc1", "SNB-75 CNS", "inactive"),
    ("COc1ccc2ncnc(Nc3ccc(OCc4ccccc4)cc3)c2c1", "SNB-75 CNS", "inactive"),
    ("C=C1C(=O)O[C@H]2[C@H]1CC/C(CNC(=O)c1cc3ccccc3[nH]1)=C\\CC[C@@]1(C)O[C@@H]21", "SNB-75 CNS", "inactive"),
    ("Cn1cc(-c2cc3c(N4CCN(c5ncc([C@@](C)(N)c6ccc(F)cc6)cn5)CC4)ncnn3c2)cn1", "SNB-75 CNS", "inactive"),
    ("NC(=S)N/N=C\\c1nccc2c(C(F)(F)F)cccc12", "SNB-75 CNS", "active"),
    ("O=C1c2c(F)c(F)c(F)c(F)c2C(=O)N1c1ccc(F)cc1F", "SNB-75 CNS", "inactive"),
    ("c1ccc(-c2n(Cc3ccc4ccccc4n3)cc[n+]2Cc2ccc3ccccc3c2)cc1", "SNB-75 CNS", "inactive"),
]

Now take the following compound into account.
Any idea what this test logged for COC(=O)c1cc2oc(/C=C3/SC(=S)N(NC(C)=O)C3=O)cc2n1C ?
inactive
